Please go through the items and note down their zone of inhibition at 600 µg/mL.
- Test system: Fusarium oxysporum
- methodSummary: Antifungal activity against Fusarium oxysporum assessed as growth inhibition at 600 ug/ml
- Assay type: functional
- measurementContext: read-out: IZ
Number in mm, nothing else.

Item COc1ccc2c(OCCCN3CCN(Cc4cccnc4)CC3)c(-c3ccccc3)c(=O)oc2c1 with Fusarium oxysporum - zone of inhibition at 600 µg/mL? 8.78

Item COc1ccc2c(OCCCN3CCN(Cc4ccc(Cl)cc4Cl)CC3)c(-c3ccccc3)c(=O)oc2c1 with Fusarium oxysporum - zone of inhibition at 600 µg/mL? 6.25

Item CCCOc1ccc(CN2CCN(CCCOc3c(-c4ccccc4)c(=O)oc4cc(OC)ccc34)CC2)cc1 with Fusarium oxysporum - zone of inhibition at 600 µg/mL? 4.92
